- experimental.target: Sphingosine 1-phosphate receptor 1 (Homo sapiens)
- test.method.notes: Agonist activity at human S1P1 receptor transfected in CHO cells at 10 uM incubated for 10 to 15 mins prior to GTPgamma35S addition measured after 120 mins by GTPgamma35S binding assay relative to S1P
- Type: functional, cell-based
measure: Emax

Need Emax of "C/C(=N\OCc1ccc(C2CCCCC2)c(C(F)(F)F)c1)c1ccc(CNCCC(=O)O)c(C2CC2)c1" , thanks.
98%

Need Emax of "C/C(=N\OCc1ccc(C2CCCCC2)c(C(F)(F)F)c1)c1ccc(CNCCC(=O)O)c(Br)c1" , thanks.
85%

Need Emax of CCc1cc(/C(C)=N/OCc2ccc(C3CCCCC3)c(C(F)(F)F)c2)ccc1CN1CC(C(=O)O)C1 [SIPONIMOD] , thanks.
91%

Need Emax of "C/C(=N\OCc1ccc(C2CCCCC2)c(C(F)(F)F)c1)c1ccc(CNCCC(=O)O)c(Cl)c1" , thanks.
106%

Need Emax of "C/C(=N\OCc1ccc(C2CCCCC2)c(C(F)(F)F)c1)c1ccc(CNCCC(=O)O)o1" , thanks.
100%

* * *

- test.method.notes: Oral bioavailability in monkey
- Assay type: ADME, organism-based, Macaca mulatta
- condition.label: rhesus monkey, in vivo
measure: bioavailability (%)
Expressed in %, but write only the number.

Need bioavailability of "CCc1cc(/C(C)=N/OCc2ccc(C3CCCCC3)c(C(F)(F)F)c2)ccc1CN1CC(C(=O)O)C1" , thanks.
71

* * *

- test.method.notes: Elimination half life in po dosed mouse
- Assay type: ADME, organism-based
- condition.label: in vivo, read-out: beta t1/2
measure: half-life

Need half-life of "C/C(=N\OCc1ccc(-c2ccccc2)cc1)c1ccc(CCC(N)(CO)CO)cc1" , thanks.
> 30 h

* * *

- experimental.target: hERG (KCNH2) (Homo sapiens, UniProt Q12809)
- Sequence (Q12809 whole entry): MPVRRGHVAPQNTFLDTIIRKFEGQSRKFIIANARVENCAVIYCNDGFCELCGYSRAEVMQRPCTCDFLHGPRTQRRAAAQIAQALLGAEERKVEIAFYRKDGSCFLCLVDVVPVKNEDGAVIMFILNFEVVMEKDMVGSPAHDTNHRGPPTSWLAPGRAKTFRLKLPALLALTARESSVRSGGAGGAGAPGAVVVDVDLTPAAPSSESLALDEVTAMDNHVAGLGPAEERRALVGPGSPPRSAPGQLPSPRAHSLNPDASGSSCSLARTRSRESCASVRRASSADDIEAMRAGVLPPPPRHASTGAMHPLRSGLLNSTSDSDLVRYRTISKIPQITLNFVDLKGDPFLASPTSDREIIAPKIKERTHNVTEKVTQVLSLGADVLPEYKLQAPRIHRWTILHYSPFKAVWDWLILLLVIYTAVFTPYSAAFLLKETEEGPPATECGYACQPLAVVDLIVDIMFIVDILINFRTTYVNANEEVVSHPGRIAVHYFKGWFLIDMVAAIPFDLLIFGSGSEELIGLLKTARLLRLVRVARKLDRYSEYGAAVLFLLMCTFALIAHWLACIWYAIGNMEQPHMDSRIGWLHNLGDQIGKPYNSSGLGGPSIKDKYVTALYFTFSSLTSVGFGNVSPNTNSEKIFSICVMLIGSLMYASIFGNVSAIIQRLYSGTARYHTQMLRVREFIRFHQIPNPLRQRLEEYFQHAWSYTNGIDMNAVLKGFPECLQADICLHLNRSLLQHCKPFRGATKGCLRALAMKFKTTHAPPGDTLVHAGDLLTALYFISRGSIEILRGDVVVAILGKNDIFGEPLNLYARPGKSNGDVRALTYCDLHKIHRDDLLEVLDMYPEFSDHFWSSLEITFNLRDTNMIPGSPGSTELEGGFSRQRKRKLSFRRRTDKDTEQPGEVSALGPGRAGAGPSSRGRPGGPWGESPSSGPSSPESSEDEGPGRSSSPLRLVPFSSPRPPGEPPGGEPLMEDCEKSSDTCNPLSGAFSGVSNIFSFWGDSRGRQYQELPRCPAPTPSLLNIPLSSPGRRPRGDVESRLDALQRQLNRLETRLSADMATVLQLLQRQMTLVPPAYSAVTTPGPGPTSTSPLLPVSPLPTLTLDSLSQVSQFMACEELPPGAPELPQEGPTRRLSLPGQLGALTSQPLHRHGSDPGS
- test.method.notes: Inhibition of human ERG channel at 25 uM
measure: inhibition at 25 µM

What inhibition at 25 µM appears in the records for this compound with hERG (KCNH2) (Homo sapiens, UniProt Q12809)? CCc1cc(/C(C)=N/OCc2ccc(C3CCCCC3)c(C(F)(F)F)c2)ccc1CN1CC(C(=O)O)C1 [SIPONIMOD]
< 10%

* * *

- experimental.target: Sphingosine 1-phosphate receptor 1 (Homo sapiens, UniProt P21453)
- Sequence (P21453 whole entry): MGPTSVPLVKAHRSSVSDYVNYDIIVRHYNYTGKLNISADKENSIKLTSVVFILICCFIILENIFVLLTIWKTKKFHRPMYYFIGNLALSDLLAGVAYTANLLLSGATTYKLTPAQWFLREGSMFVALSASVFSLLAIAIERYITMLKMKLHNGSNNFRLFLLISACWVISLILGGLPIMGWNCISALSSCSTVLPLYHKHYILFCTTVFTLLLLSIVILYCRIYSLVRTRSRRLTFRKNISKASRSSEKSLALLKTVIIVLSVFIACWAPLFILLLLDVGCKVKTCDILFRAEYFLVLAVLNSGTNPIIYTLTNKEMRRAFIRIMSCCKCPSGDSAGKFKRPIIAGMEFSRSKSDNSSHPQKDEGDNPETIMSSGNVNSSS
- test.method.notes: Agonist activity at human S1P1 receptor transfected in CHO cells incubated for 10 to 15 mins prior to GTPgamma35S addition measured after 120 mins by GTPgamma35S binding assay
Please use yes (1) for EC50 under 20 nM and no (0) for everything else, ties included.

Known results for compounds:
{"compound.structure": "C/C(=N\\OCc1ccc(C2CCCCC2)c(C(F)(F)F)c1)c1ccc(CNCCC(=O)O)c(C)c1", "assigned.category": "yes (1)"}
{"compound.structure": "C/C(=N\\OCc1ccc(-c2ccccc2)cc1)c1ccc(CNCCC(=O)O)cc1", "assigned.category": "no (0)"}
{"compound.structure": "C/C(=N\\OCc1ccc(-c2ccccc2)cc1F)c1ccc(CNCCC(=O)O)cc1", "assigned.category": "no (0)"}
{"compound.structure": "C/C(=N\\OCc1ccc(C2CCCCC2)c(C(F)(F)F)c1)c1ccc(CNCCC(=O)O)c(F)c1", "assigned.category": "yes (1)"}

Please state whether EC50 is below 20 nM for "C/C(=N\OCc1ccc(-c2ccccc2F)c(C(F)(F)F)c1)c1ccc(CNCCC(=O)O)cc1"
yes (1)

Please state whether EC50 is below 20 nM for "C/C(=N\OCc1ccc(-c2ccc(F)cc2)cc1)c1ccc(CNCCC(=O)O)cc1"
no (0)

Please state whether EC50 is below 20 nM for "C/C(=N\OCc1ccc(-c2ccc(F)c(F)c2)c(C(F)(F)F)c1)c1ccc(CNCCC(=O)O)cc1"
yes (1)

Please state whether EC50 is below 20 nM for "C/C(=N\OCc1ccc(C2CCCCC2)c(C(F)(F)F)c1)c1ccc(CNCCC(=O)O)c(Br)c1"
yes (1)

Please state whether EC50 is below 20 nM for "C/C(=N\OCc1ccc(C2CCCCC2)c(C(F)(F)F)c1)c1ccc(CNCCC(=O)O)cc1"
yes (1)
